B1: BRF1 (parent)
chain: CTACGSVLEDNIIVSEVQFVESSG

Variants of: B1
Assay: protein stability index of a GFP-peptide fusion (GPS, HEK-293T) (PSI 1-6); higher = more stable;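 also: lentivirally expressed fusions sorted by FACS into six bins by GFP to DsRed ratio, PSI derived from sequencing read proportions per bin multiplied by bin number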
Settings: c terminus: a fixed tail appended
# key: entry, value: protein stability index
measuredQuantity: protein stability index

{"columns": ["sequenceString", "measured"],
 "data": [
  ["CTAQGSVLEDNIIVSEVQFVESSG [C4Q]", 4.18],
  ["CTACDSVLEDNIIVSEVQFVESSG [G5D]", 3.62],
  ["CTACGSVLEDNIIVSEVQFVYSSG [E21Y]", 1.77],
  ["CTAYGSVLEDNIIVSEVQFVESSG [C4Y]", 2.61],
  ["CTACGSVLEDNIIVSEVAFVESSG [Q18A]", 3.26],
  ["CTACGSVLEDNIIVSEVQFVESNG [S23N]", 3.15],
  ["CTACGSVLEDGIIVSEVQFVESSG [N11G]", 2.96],
  ["CTACFSVLEDNIIVSEVQFVESSG [G5F]", 2.41],
  ["CTACGSVLEDNIIVSEVQFVEQSG [S22Q]", 3.38],
  ["CTACGSVLEDNHIVSEVQFVESSG [I12H]", 3.41],
  ["CTACGSVLEDNIIVSEVQFVEMSG [S22M]", 2.44],
  ["CTACGSVLEDNIIESEVQFVESSG [V14E]", 4.28],
  ["CTACGSVLEDNIIVSGVQFVESSG [E16G]", 3.51],
  ["CTACGSVLEDNIIVSEVQFSESSG [V20S]", 4.23],
  ["CTACGSVLEDNIIVSEVQDVESSG [F19D]", 4.53],
  ["CTACGSVLEDNIILSEVQFVESSG [V14L]", 2.78],
  ["CTACGSVLEDNIIVSEVQFYESSG [V20Y]", 2.44],
  ["CTACGSVSEDNIIVSEVQFVESSG [L8S]", 3.06],
  ["CTACGSVLEDNIIVSEVQFVISSG [E21I]", 2.28],
  ["CTACGSVLEDNIIVSPVQFVESSG [E16P]", 3.33],
  ["GTACGSVLEDNIIVSEVQFVESSG [C1G]", 4.18],
  ["CTACGSVLEDNVIVSEVQFVESSG [I12V]", 2.99]
]}
